Ref: ChEMBL document CHEMBL2303647

AC50 by entry:
biological target: Coelenterazine h 2-monooxygenase (Renilla reniformis, UniProt P27652); details: read-out: AC50
Sequence (P27652 whole entry): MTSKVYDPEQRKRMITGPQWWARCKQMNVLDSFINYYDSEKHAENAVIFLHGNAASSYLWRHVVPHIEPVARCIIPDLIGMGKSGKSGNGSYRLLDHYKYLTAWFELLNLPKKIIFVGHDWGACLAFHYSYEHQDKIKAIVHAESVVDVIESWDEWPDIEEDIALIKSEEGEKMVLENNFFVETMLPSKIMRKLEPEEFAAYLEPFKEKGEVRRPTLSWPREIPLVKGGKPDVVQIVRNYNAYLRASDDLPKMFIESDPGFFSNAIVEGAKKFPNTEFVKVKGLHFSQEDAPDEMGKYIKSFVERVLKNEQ
Description: GSK_PKIS: Inhibition of Sea Pansy Luciferase (Data from PubChem: AID 652015) [NIH NCATS]
Lab book: enter the figure in µM, no units written.

O=C1Nc2ccc(I)cc2C1=Cc1cc(Br)c(O)c(Br)c1 [GW305074X] : 20.6
COc1ccc2ncn(-c3cc(O[C@H](C)c4ccccc4C(F)(F)F)c(C(N)=O)s3)c2c1 [GSK-317315A] : 20.6
O=C1NC(=O)C(N2CCc3ccccc32)=C1c1ccc(Cl)cc1 : 20.6
COC(=O)c1ccc2c(c1)C(=Cc1cc(Br)c(O)c(Br)c1)C(=O)N2 [GW405841X] : 13

Now examine the next entry.
Exam item: Please report the recorded AC50 for COc1cc2c(cc1Nc1nc(Nc3cccc(F)c3C(N)=O)c3cc[nH]c3n1)N(C(=O)CN1CCN(C(C)C)CC1)CC2 [GSK-1751853A] .
Marked response: 36.6

====

target: Coelenterazine h 2-monooxygenase (Renilla reniformis, UniProt P27652); settings: read-out: AC50
We label by threshold. Values of AC50 strictly beneath 20 µM are 1. Values of 20 µM and up are 0.

Here are 5 molecules together with their reported answers.
COc1cc(Nc2nccc(Nc3ccc4c(C)n[nH]c4c3)n2)cc(OC)c1OC [GW612286X] : 0
CCn1c(-c2nonc2N)nc2c(C#CC(C)(C)O)nc(O[C@@H](CN)c3ccccc3)cc21.O=C(O)C(F)(F)F [GSK-1007102B] : 0
COc1cc(N2CCN(C(C)C)CC2)ccc1Nc1nc(Nc2ccc(F)cc2C(N)=O)c2cc[nH]c2n1 [GSK-1220512A] : 0
CCN(CC)Cc1ccc(Nc2nccc(-c3cnn4ncccc34)n2)cc1 [GW780056X] : 0
Nc1nc(-c2ccc3c(c2)C(=Cc2cc(Br)c(O)c(Br)c2)C(=O)N3)cs1 [GW407323A] : 0

Exam item: Given NS(=O)(=O)c1ccc(-c2cc3ccncc3cc2OCc2ccccc2)cc1 [GSK-953913A] , is recorded AC50 strictly lower than 20 µM?
Marked response: 1

Exam item: Given Cc1c2ccc(N(C)c3ccnc(Nc4cccc(S(N)(=O)=O)c4)n3)cc2nn1C [GW771127A] , is recorded AC50 strictly lower than 20 µM?
Marked response: 1

Exam item: Given Cl.Oc1cccc(-c2nc(-c3ccccc3)[nH]c2-c2ccncc2)c1 , is recorded AC50 strictly lower than 20 µM?
Marked response: 0

Exam item: Given COc1ccc(C2=C(N3CCc4ccccc43)C(=O)NC2=O)cc1 , is recorded AC50 strictly lower than 20 µM?
Marked response: 0

====

target: Coelenterazine h 2-monooxygenase (Renilla reniformis, UniProt P27652); conditions: read-out: AC50
AC50 by entry:
Lab book: enter the figure in µM, no units written.

CCn1c(-c2nonc2N)nc2c(C#CC(C)(C)O)nc(OC[C@@H](N)c3ccccc3)cc21 [GSK-938890A] : 29.1
CCS(=O)(=O)c1ccc(OC)c(Nc2nccc(N(C)c3ccc4c(C)n[nH]c4c3)n2)c1.Cl [GW654652C] : 32.6
NS(=O)(=O)c1ccc(Nc2cc(-c3ccc(O)c(F)c3)n[nH]2)cc1 [GW831091X] : 36.6

Now examine the next entry.
Exam item: Please report the recorded AC50 for COc1cccc(COc2cc(-n3cnc4ccccc43)sc2C(N)=O)c1 [GW804482X] .
Marked response: 20.6
